- experiment: chemical genetic growth profiling, strain panel (AID 1159580);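 note: tested at 20 µM; growth read once vehicle control cultures reached saturation at 30 °C; lower values mean less growth of the strain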
- recordedConditions: S. cerevisiae deletion strains, growth OD, locus YLR268W, strain sec22
About 2,000 (36%) of roughly 5,500 compounds were called active. Roughly 18% stayed inconclusive and do not appear here. Cut-off read from the data, not from the text of the source: active = normalized growth mostly below about 0.91 (no sharp cut-off); inconclusive = no clear call, values can overlap the other calls; inactive = mostly above about 0.92. The list shows a part of the results.
Field 'call' accepts y (active), n (inactive)

{"compound": "COc1ccc2[nH]cc(CCN)c2c1", "category": "n"}

Please indicate how the test categorized C[C@@H]1OC(O[C@H]2[C@H](O)[C@@H](O)[C@H](OC[C@H]3O[C@@H](OC(=O)[C@]45CCC(C)(C)CC4C4=CCC6[C@@]7(C)CC[C@H](OC8OC[C@H](O)[C@H](O)[C@H]8OC8O[C@@H](C)[C@H](O)[C@@H](O)[C@H]8O)[C@@](C)(CO)C7CC[C@@]6(C)[C@]4(C)CC5)[C@H](O)[C@@H](O)[C@@H]3O)O[C@@H]2CO)[C@H](O)[C@H](O)[C@H]1O (stereo not given in full) .
n

Would you mind doing COC(=O)Nc1nc2ccc(C(=O)c3ccccc3)cc2[nH]1 as well?
n

Subsequent entry: C[C@H]1[C@H](C)CC[C@]2(CO)CC[C@]3(C)C(=CCC4[C@@]5(C)CC[C@H](O)C(C)(C)C5CC[C@]43C)[C@H]12 (stereo not given in full)
n

Then C/C=C(/C)C(=O)O[C@@H]1[C@H](OC(C)=O)[C@@]2(CO)C(CC1(C)C)C1=CCC3[C@@]4(C)CC[C@H](O[C@@H]5O[C@H](C(=O)O)[C@@H](O[C@@H]6O[C@H](CO)[C@@H](O)[C@H](O)[C@H]6O)[C@H](O)[C@H]5O[C@@H]5O[C@H](CO)[C@@H](O)[C@H](O)[C@H]5O)[C@](C)(CO)C4CC[C@@]3(C)[C@]1(C)C[C@H]2O (stereo not given in full) ?
n

Moving on to the next compound: Cc1cc(C(C)(C)C)c(O)c(C(C)(C)C)c1
n
